Where these numbers come from: the nanobody polyreactivity screen of Harvey et al. (2022)

# method_summary: yeast display, Sf9 membrane polyspecificity reagent, FACS + sequencing; frameworks hold sequencing errors
measured_attribute: polyreactivity (PSR sort gate)

[[record]]
entry_sequence = "QVQLVESGGGLVQAGGSLRLSCAASGNTFSISAMGWYRLAPGKERELVAAISLSGGSTYYADSVKGRFTISRDNAKNTVYLQMNSLKPEDTAVYYCAADVFTARRRYDYWGQGTQLTVSS"
reported_result = "low polyreactivity"

[[record]]
entry_sequence = "QVQLVESGGGLVQAGGSLRLSCAASGRILRINPMGWYRQAPGKERELVAAISGSGGTTYYADSVKGRFTISRDNAKNTVYLQMNSLKPEDTAVYYCNKAIWYAEYDYWGQGTQVTVSS"
reported_result = "low polyreactivity"

[[record]]
entry_sequence = "QVQLVESGGGLVQSRGSLRLSWAASGSTFTYNTMGWYRQAPGKERELVAAISSGGSTYYADSVKGRFTISRDNAKNTVFLQMNSLKPEDTAVYYCAATAQKDSRYGSRYYYWGQGTQVTVSS"
reported_result = "high polyreactivity"

[[record]]
entry_sequence = "QVQLVESGGGLVQAGGSLRLSCAASGITFYYYVMGWYRQAPGKERELVAAIDSGDSTYYADSVKGRFTISRDNAKNTVYLQMNSLKPEDTAVYYCAVDYEADNELNGPDQEYGRDSWGQGTQVTVSS"
reported_result = "low polyreactivity"


From here, focus on the item given below.
The reported polyreactivity (PSR sort gate) of the sequence `QVQLVESGGGLVQAGGSLRLSCAASGRIFKYYVMGWYRQAPGKERELVAAISSGSGSTYYADSVKGRFTISRDNAKNTVYLQMNSLKPEDTAVYYCNALSSWRRTYGSRYDYWGQGTQVTVSS` was high polyreactivity

###

# method_summary: yeast display, Sf9 membrane polyspecificity reagent, FACS + sequencing; frameworks hold sequencing errors
measured_attribute: polyreactivity (PSR sort gate)

[[record]]
entry_sequence = "QVQLVESGGGLVQAGGSLRLSCAASGSIFGYYAMGWYRQAPGKERELVASISGSGGTTYFADSVKGRFTISRDNAKNTVYLQMNSLKPEDTAVYYCAARRSIYGYPFVTSRRGYWGQGTQVTVSS"
measured_attribute = "polyreactivity (PSR sort gate)"
reported_result = "high polyreactivity"

[[record]]
entry_sequence = "QVQLVESGGGLVQAGGSLRLSCAASGFTFLINAMGWYRQAPGKERELVAAIRSGGSTNYADSVKGRFTISRDNAKNSVYLQMNSLKPEDTAVYYCAARRYYPYKYRYGYWGQGTQVTVSS"
measured_attribute = "polyreactivity (PSR sort gate)"
reported_result = "high polyreactivity"

[[record]]
entry_sequence = "QVQLVESGGGLVQARGSLRLSCAASGINFYHYPMGWYRQATGKEMELVAAINWGGSRTYYADSVKGRFTISRDNAKNTVYLQMNSLKPEDTAVYYCAAVYVPYYWLGRSRGLDYWGQGTQVTVSS"
measured_attribute = "polyreactivity (PSR sort gate)"
reported_result = "high polyreactivity"

[[record]]
entry_sequence = "QVQLVESGGGLVQAGGSLRLSCAASGYRFERNAMGWYIQAPGKERELVAAITDDGDDTYYADSVKGRFTISRDNAKNTVYLQINSLKPEDYAVYYWAKDLYYGDYYYWGQGTQVTVSS"
measured_attribute = "polyreactivity (PSR sort gate)"
reported_result = "low polyreactivity"


From here, focus on the item given below.
The reported polyreactivity (PSR sort gate) of the sequence `QVQLVESGGGIVQAGGSLRISCAASGRIFSTYAMGWYRQAPGKERELVAAINKIGGSTYYADSVKGRFTISRDNAKNTVYLQMNSLKPEDTAVYYCAADAPYYPVRRYYYWGQGTQVTVSS` was low polyreactivity
